// data source = patent US8486885B2

Item-by-item account of rat AT1aR IP One Max (%)
# Study System: rat angiotensin 2 type 1 receptor (rat AT1aR) (Rattus norvegicus)
# Construct: expressed in transfected cells
# Assay Method Text: IP1 accumulation assay (IP-One Tb), rat AT1aR
# Assay type: cell-based
# Applied Conditions: cells expressing rat AT1aR
# Sequence (P25095 whole entry): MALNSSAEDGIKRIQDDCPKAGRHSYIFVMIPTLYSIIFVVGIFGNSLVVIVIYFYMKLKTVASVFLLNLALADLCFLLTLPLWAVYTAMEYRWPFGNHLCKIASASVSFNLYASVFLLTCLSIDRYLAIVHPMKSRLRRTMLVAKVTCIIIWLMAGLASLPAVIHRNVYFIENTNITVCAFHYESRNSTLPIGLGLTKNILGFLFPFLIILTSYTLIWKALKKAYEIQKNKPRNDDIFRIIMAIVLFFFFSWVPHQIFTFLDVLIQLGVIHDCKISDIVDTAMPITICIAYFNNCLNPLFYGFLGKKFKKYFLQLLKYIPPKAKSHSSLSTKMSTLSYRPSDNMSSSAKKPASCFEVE
Non-standard residues stand in square brackets, D forms with d. Residues, ends and D or L forms follow the SMILES beside them. Sar = CNCC(=O)O
Give a bare numeral; the unit % is implied.

See these solved cases before continuing.
>>> meas_value("CC[C@H](C)[C@H](NC(=O)[C@H](Cc1ccccc1)NC(=O)[C@@H](NC(=O)[C@H](CCCNC(=N)N)NC(=O)CNC)C(C)C)C(=O)N[C@@H](Cc1c[nH]cn1)C(=O)N1CCC[C@H]1C(=O)N[C@H](C)C(=O)O")
13.9
>>> meas_value("CNCC(=O)N[C@@H](CCCNC(=N)N)C(=O)N[C@H](C(=O)N[C@@H](Cc1ccc(O)cc1)C(=O)N[C@@H](Cc1ccc(O)cc1)C(=O)N[C@@H](Cc1c[nH]cn1)C(=O)N1CCC[C@H]1C(=O)O)C(C)C")
8.0
>>> meas_value("CC[C@H](C)[C@H](NC(=O)[C@H](Cc1ccc(O)cc1)NC(=O)[C@@H](NC(=O)[C@H](CCCNC(=N)N)NC(=O)[C@@H](N)CC(=O)O)C(C)C)C(=O)N[C@@H](Cc1c[nH]cn1)C(=O)N1CCC[C@H]1C(=O)NCC(=O)O [SEQ ID NO:56] (H-DRVYIHPG-OH; N-terminus assumed)")
98.4
>>> meas_value("CNCC(=O)N[C@@H](CCCNC(=N)N)C(=O)N[C@H](C(=O)N[C@@H](Cc1ccc(O)cc1)C(=O)N[C@@H](CCCNC(=N)N)C(=O)N[C@@H](Cc1c[nH]cn1)C(=O)N1CCC[C@H]1C(N)=O)C(C)C [SEQ ID NO:45, Sar-Arg-Val-Tyr-Arg-His-Pro-NH2] (H-[Sar]RVYRHP-NH2; N-terminus assumed)")
10.2
>>> meas_value("CNCC(=O)N[C@@H](CCCNC(=N)N)C(=O)N[C@H](C(=O)N[C@@H](Cc1ccc(O)cc1)C(=O)N[C@H](C(=O)N[C@@H](Cc1c[nH]cn1)C(N)=O)C(C)C)C(C)C [SEQ ID NO:55, Sar-Arg-Val-Tyr-Val-His-NH2] (H-[Sar]RVYVH-NH2; N-terminus assumed)")
98.8

Now consider the entry below.
Supply measured rat AT1aR IP One Max (%) of CNCC(=O)N[C@@H](CCCNC(=N)N)C(=O)N[C@H](C(=O)N[C@@H](Cc1ccc(O)cc1)C(=O)N[C@@H](CCCCN)C(=O)N[C@@H](Cc1c[nH]cn1)C(=O)N1CCC[C@H]1C(N)=O)C(C)C [SEQ ID NO:43, Sar-Arg-Val-Tyr-Lys-His-Pro-NH2] (H-[Sar]RVYKHP-NH2) in your reply.
17.9

* * *

# Study System: human angiotensin 2 type 1 receptor (human AT1R) (Homo sapiens, UniProt P30556)
# Sequence (P30556 whole entry): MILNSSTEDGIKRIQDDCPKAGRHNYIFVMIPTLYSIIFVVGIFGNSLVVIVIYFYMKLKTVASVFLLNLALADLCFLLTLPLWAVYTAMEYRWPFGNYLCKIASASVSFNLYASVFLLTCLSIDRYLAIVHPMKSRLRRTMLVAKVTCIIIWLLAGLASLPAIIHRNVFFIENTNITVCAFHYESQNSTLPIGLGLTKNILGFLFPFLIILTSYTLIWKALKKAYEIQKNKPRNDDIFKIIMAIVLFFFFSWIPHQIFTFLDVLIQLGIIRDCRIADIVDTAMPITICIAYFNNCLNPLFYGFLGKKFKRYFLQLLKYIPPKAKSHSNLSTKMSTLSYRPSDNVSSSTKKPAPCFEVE
# Sequence (P32121 whole entry partner): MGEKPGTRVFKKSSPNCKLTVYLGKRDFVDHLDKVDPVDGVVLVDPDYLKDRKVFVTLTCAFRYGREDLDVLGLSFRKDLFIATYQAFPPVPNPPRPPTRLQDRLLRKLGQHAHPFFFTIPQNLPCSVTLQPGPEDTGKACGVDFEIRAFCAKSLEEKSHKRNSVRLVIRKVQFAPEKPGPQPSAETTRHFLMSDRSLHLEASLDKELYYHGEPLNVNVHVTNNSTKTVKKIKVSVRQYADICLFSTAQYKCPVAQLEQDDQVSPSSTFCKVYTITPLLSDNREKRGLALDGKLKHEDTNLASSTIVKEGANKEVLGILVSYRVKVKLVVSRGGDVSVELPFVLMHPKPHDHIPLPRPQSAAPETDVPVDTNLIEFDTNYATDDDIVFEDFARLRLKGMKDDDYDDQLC
# Assay Method Text: PathHunter β-arrestin-2 recruitment assay, human AT1R
# Applied Conditions: PathHunter β-arrestin HEK293 cells, read-out: human AT1R b-arrestin2 EC50
Non-standard residues stand in square brackets, D forms with d. Residues, ends and D or L forms follow the SMILES beside them. Sar = CNCC(=O)O
hey, just use true if measured EC50 is less than 1000 nM, otherwise false

Identify whether the compound CNCC(=O)N[C@@H](CCCNC(=N)N)C(=O)N[C@H](C(=O)N[C@@H](Cc1ccc(O)cc1)C(=O)N[C@H](C)C(=O)N[C@@H](Cc1c[nH]cn1)C(=O)N1CCC[C@H]1C(N)=O)C(C)C [SEQ ID NO:53, Sar-Arg-Val-Tyr-D-Ala-His-Pro-NH2] records EC50 below 1000 nM.
false

Identify whether the compound CC[C@H](C)[C@H](NC(=O)[C@H](Cc1ccc(O)cc1)NC(=O)[C@@H](NC(=O)[C@H](CCCNC(=N)N)NC(=O)CNC)C(C)C)C(=O)N[C@@H](Cc1c[nH]cn1)C(=O)N1CCC[C@@H]1C(N)=O [SEQ ID NO:51, Sar-Arg-Val-Tyr-Ile-His-D-Pro-NH2] records EC50 below 1000 nM.
true

Identify whether the compound CNCC(=O)N[C@@H](CCCNC(=N)N)C(=O)N[C@H](C(=O)N[C@@H](Cc1ccc(O)cc1)C(=O)N[C@@H](Cc1c[nH]cn1)C(=O)N[C@@H](Cc1c[nH]cn1)C(=O)N1CCC[C@H]1C(N)=O)C(C)C [SEQ ID NO:42, Sar-Arg-Val-Tyr-His-His-Pro-NH2] (H-[Sar]RVYHHP-NH2; N-terminus assumed) records EC50 below 1000 nM.
true

Identify whether the compound CNCC(=O)N[C@@H](CCCNC(=N)N)C(=O)N[C@H](C(=O)N[C@@H](Cc1ccc(O)cc1)C(=O)N[C@@H](Cc1ccccc1)C(=O)N[C@@H](Cc1c[nH]cn1)C(=O)N1CCC[C@H]1C(N)=O)C(C)C [SEQ ID NO:41, Sar-Arg-Val-Tyr-Phe-His-Pro-NH2] records EC50 below 1000 nM.
false

Identify whether the compound CC[C@H](C)[C@H](NC(=O)[C@H](Cc1ccc(O)cc1)NC(=O)[C@@H](NC(=O)[C@H](CCCNC(=N)N)NC(=O)CNC)C(C)C)C(=O)N[C@@H](CCCCN)C(=O)N1CCC[C@H]1C(=O)N[C@H](C)C(=O)O [SEQ ID NO:50, Sar-Arg-Val-Tyr-Ile-Lys-Pro-D-Ala-OH] (H-[Sar]RVYIKP[dA]-OH; N-terminus assumed) records EC50 below 1000 nM.
true

Identify whether the compound CNCC(=O)N[C@@H](CCCNC(=N)N)C(=O)N[C@H](C(=O)N[C@@H](Cc1ccc(O)cc1)C(=O)N[C@@H](Cc1ccc(O)cc1)C(=O)N[C@@H](Cc1c[nH]cn1)C(=O)N1CCC[C@H]1C(=O)O)C(C)C [SEQ ID NO:52, Sar-Arg-Val-Tyr-Tyr-His-Pro-OH] records EC50 below 1000 nM.
false

* * *

# Study System: rat angiotensin 2 type 1 receptor (rat AT1aR) (Rattus norvegicus)
# Assay Method Text: PathHunter β-arrestin-2 recruitment assay, rat AT1aR
# Assay type: cell-based
# Applied Conditions: PathHunter β-arrestin HEK293 cells, read-out: rat AT1aR b-arrestin2 EC50
# Sequence (P25095 whole entry): as the sequence (P25095 whole entry) above
# Sequence (P32121 whole entry partner): as the sequence (P32121 whole entry partner) above
Non-standard residues stand in square brackets, D forms with d. Residues, ends and D or L forms follow the SMILES beside them. Sar = CNCC(=O)O
Item-by-item account of EC50
Give a bare numeral; the unit nM is implied.

>>> meas_value("CNCC(=O)N[C@@H](CCCNC(=N)N)C(=O)N[C@H](C(=O)N[C@@H](Cc1ccc(O)cc1)C(=O)N[C@@H](CCCNC(=N)N)C(=O)N[C@@H](Cc1c[nH]cn1)C(=O)N1CCC[C@H]1C(N)=O)C(C)C [SEQ ID NO:45, Sar-Arg-Val-Tyr-Arg-His-Pro-NH2] (H-[Sar]RVYRHP-NH2; N-terminus assumed)")
27

Supply measured EC50 of CC[C@H](C)[C@H](NC(=O)[C@H](Cc1ccc(O)cc1)NC(=O)[C@@H](NC(=O)[C@H](CCCCN)NC(=O)CNC)C(C)C)C(=O)N[C@@H](Cc1c[nH]cn1)C(=O)N1CCC[C@H]1C(=O)N[C@H](C)C(=O)O in your reply.
630

Supply measured EC50 of CC[C@H](C)[C@H](NC(=O)[C@H](Cc1ccc(O)cc1)NC(=O)[C@@H](NC(=O)[C@H](CCCNC(=N)N)NC(=O)CNC)C(C)C)C(=O)N[C@@H](CCCCN)C(=O)N1CCC[C@H]1C(=O)N[C@H](C)C(=O)O [SEQ ID NO:50, Sar-Arg-Val-Tyr-Ile-Lys-Pro-D-Ala-OH] (H-[Sar]RVYIKP[dA]-OH; N-terminus assumed) in your reply.
270

* * *

# Study System: human angiotensin 2 type 1 receptor (human AT1R) (Homo sapiens, UniProt P30556)
# Assay Method Text: PathHunter β-arrestin-2 recruitment assay, human AT1R
# Type: cell-based
# Applied Conditions: PathHunter β-arrestin HEK293 cells
# Procedure: The proximal event in β-arrestin function mediated by GPCRs is recruitment to receptors following ligand binding and receptor phosphorylation by GRK's. Thus, the measure of β-arrestin recruitment was used to determine ligand efficacy for β-arrestin function. B-arrestin-2 recruitment to the human and rat angiotensin 2 type 1 receptor (human AT1R and rat AT1aR, respectively) was measured with the PathHunter™ β-arrestin assay (DiscoveRx Corporation, Fremont Calif.). […]
Non-standard residues stand in square brackets, D forms with d. Residues, ends and D or L forms follow the SMILES beside them. Sar = CNCC(=O)O
Readout Name: human AT1R b-arrestin2 Max (%)
Give a bare numeral; the unit % is implied.

See these solved cases before continuing.
>>> meas_value("CNCC(=O)N[C@@H](CCCNC(=N)N)C(=O)N[C@H](C(=O)N[C@@H](Cc1ccc(O)cc1)C(=O)N[C@@H](Cc1c[nH]cn1)C(=O)N[C@@H](Cc1c[nH]cn1)C(=O)N1CCC[C@H]1C(N)=O)C(C)C [SEQ ID NO:42, Sar-Arg-Val-Tyr-His-His-Pro-NH2] (H-[Sar]RVYHHP-NH2; N-terminus assumed)")
46.4
>>> meas_value("CNCC(=O)N[C@@H](CCCNC(=N)N)C(=O)N[C@H](C(=O)N[C@@H](Cc1ccc(O)cc1)C(=O)N[C@H](C)C(=O)N[C@@H](Cc1c[nH]cn1)C(=O)N1CCC[C@H]1C(N)=O)C(C)C")
33.6

Supply measured human AT1R b-arrestin2 Max (%) of CNCC(=O)N[C@@H](CCCNC(=N)N)C(=O)N[C@H](C(=O)N[C@@H](Cc1ccc(O)cc1)C(=O)N[C@@H](Cc1ccc(O)cc1)C(=O)N[C@@H](Cc1c[nH]cn1)C(=O)N1CCC[C@H]1C(=O)O)C(C)C in your reply.
45.9

Supply measured human AT1R b-arrestin2 Max (%) of CC[C@H](C)[C@H](NC(=O)[C@H](Cc1ccccc1)NC(=O)[C@@H](NC(=O)[C@H](CCCNC(=N)N)NC(=O)CNC)C(C)C)C(=O)N[C@@H](Cc1c[nH]cn1)C(=O)N1CCC[C@H]1C(=O)N[C@H](C)C(=O)O in your reply.
48.1
